tested on: NCI-H3122; experiment: relative viability (nuclei count vs DMSO), 5 days (fraction); higher = more cells survive; conditions: first compound 0.1581 µM
Listed here: items and their measured relative viability.
Give only the figure.

1) Nc1ccn([C@@H]2O[C@H](CO)[C@@H](O)[C@@H]2O)c(=O)n1 [Cytarabine] + COc1cc2c(Oc3ccc(NC(=O)C4(C(=O)Nc5ccc(F)cc5)CC4)cc3F)ccnc2cc1OCCCN1CCOCC1 [Foretinib] (partner 0.25 µM): 0.509
2) COc1cc2nccc(Oc3ccc(NC(=O)Nc4cc(C)on4)c(Cl)c3)c2cc1OC [Tivozanib] + Nc1nc2[nH]cc(CCc3ccc(C(=O)N[C@@H](CCC(=O)O)C(=O)O)cc3)c2c(=O)[nH]1 [Pemetrexed] (partner 0.2 µM): 0.204
3) COc1cc2nccc(Oc3ccc(NC(=O)Nc4cc(C)on4)c(Cl)c3)c2cc1OC [Tivozanib] + Nc1ncn([C@H]2C[C@H](O)[C@@H](CO)O2)c(=O)n1 [Decitabine] (partner 2 µM): 0.401
4) Nc1ccn([C@@H]2O[C@H](CO)[C@@H](O)[C@@H]2O)c(=O)n1 [Cytarabine] + CS(=O)(=O)CCNCc1ccc(-c2ccc3ncnc(Nc4ccc(OCc5cccc(F)c5)c(Cl)c4)c3c2)o1 [Lapatinib] (partner 2 µM): 0.676
5) Nc1ccn([C@@H]2O[C@H](CO)[C@@H](O)[C@@H]2O)c(=O)n1 [Cytarabine] + Cc1nc(Nc2ncc(C(=O)Nc3c(C)cccc3Cl)s2)cc(N2CCN(CCO)CC2)n1 [Dasatinib] (partner 0.075 µM): 0.349
6) Nc1ccn([C@@H]2O[C@H](CO)[C@@H](O)[C@@H]2O)c(=O)n1 [Cytarabine] + CCNC(=O)c1noc(-c2cc(C(C)C)c(O)cc2O)c1-c1ccc(CN2CCOCC2)cc1 [Luminespib] (partner 0.01 µM): 0.0776
7) COc1cc2nccc(Oc3ccc(NC(=O)Nc4cc(C)on4)c(Cl)c3)c2cc1OC [Tivozanib] + CC(C)C[C@H](NC(=O)[C@H](Cc1ccccc1)NC(=O)c1cnccn1)B(O)O [Bortezomib] (partner 0.002 µM): 1.12

Next compound, relative viability to be filled in.
For reference, reported relative viability for COc1cc2nccc(Oc3ccc(NC(=O)Nc4cc(C)on4)c(Cl)c3)c2cc1OC [Tivozanib] + N=C(N)NC(=N)NCCc1ccccc1 [Phenformin] (partner 250 µM) stands at 0.361
